Exercise: for every item that follows, state its recorded EC50.
Biological target: mouse mu opioid receptor (mMOR) (Mus musculus, UniProt P42866)
Construct: expressed in transfected cells; host or cells: HEK-293T, transient (PEI), with BRET sensor cDNAs
Sequence (P42866 whole entry): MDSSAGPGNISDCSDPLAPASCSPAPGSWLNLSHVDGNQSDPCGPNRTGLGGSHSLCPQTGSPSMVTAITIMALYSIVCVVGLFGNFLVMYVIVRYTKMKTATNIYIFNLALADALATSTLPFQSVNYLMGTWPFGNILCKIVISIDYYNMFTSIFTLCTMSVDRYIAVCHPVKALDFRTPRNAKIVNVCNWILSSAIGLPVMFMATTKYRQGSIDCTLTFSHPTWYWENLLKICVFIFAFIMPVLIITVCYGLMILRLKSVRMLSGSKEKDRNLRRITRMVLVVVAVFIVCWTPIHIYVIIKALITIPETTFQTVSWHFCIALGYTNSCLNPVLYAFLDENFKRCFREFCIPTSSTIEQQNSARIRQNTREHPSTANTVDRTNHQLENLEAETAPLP
Experiment: cell-based
Type: cell-based
Details: read-out: Gi EC50 mMOR
Numbers only, in nM.

Illustrative cases are given below, each with its answer.
molecule	unit_of_measurement	EC50
CO[C@@]12CC[C@@H](NC(=O)c3cccc(I)c3)C3Oc4c(O)ccc5c4[C@@]31CCN(CC1CC1)C2C5 (stereo partly shown) [MP1305]	nM	0.74
O=C(N[C@@H]1CC[C@@]2(O)C3Cc4ccc(O)cc4[C@@]2(CCN3CC2CC2)C1)c1cccc(I)c1 [MP1601]	nM	2.2
O=C(N[C@@H]1CC[C@@]2(O)[C@H]3Cc4ccc(O)c5c4[C@@]2(CCN3CC2CC2)[C@H]1O5)c1cccc(I)c1 [IBNtxA, reference compound]	nM	0.054

Would you kindly look at the next entry?
Ask | Entry O=C(N[C@@H]1C=CC2[C@H]3Cc4ccc(O)c5c4[C@@]2(CCN3CC2CC2)[C@H]1O5)c1cccc(I)c1 (stereo partly shown) [MP1104, reference compound] : reported EC50 = ?
Reply | 0.66

---

Target: hKOR (Homo sapiens, UniProt P41145)
Construct: expressed in transfected cells; host or cells: HEK 293T (ATCC CRL-11268), transient
Sequence (P41145 whole entry): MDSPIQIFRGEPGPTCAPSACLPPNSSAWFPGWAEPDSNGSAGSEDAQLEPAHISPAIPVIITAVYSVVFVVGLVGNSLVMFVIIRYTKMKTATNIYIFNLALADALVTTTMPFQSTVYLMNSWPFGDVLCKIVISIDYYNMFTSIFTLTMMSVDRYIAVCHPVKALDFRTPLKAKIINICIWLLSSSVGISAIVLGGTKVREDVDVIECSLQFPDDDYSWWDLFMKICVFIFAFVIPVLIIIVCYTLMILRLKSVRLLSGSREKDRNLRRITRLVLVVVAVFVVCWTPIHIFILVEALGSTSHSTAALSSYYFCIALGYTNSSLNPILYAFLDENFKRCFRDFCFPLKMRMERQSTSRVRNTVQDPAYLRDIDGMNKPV
Assay: cAMP inhibition assay (GloSensor, HEK 293T), hKOR
Format: cell-based
Settings: cAMP inhibition
Kindly state Gi pEC50±SEM hKOR for each of the entries shown.
Numbers only.

molecule	Gi pEC50±SEM hKOR
NCc1ccc(C(=O)N[C@@H]2CC[C@H]3[C@H]4Cc5ccc(O)c6c5[C@@]3(CCN4CC3CC3)[C@H]2O6)cc1 [MP1209]	10.6
N=C(N)NCc1cccc(C(=O)N[C@@H]2CCC3C4Cc5ccc(O)c6c5[C@@]3(CCN4CC3CC3)C2O6)c1 (stereo partly drawn) [MP1208]	9.9
O=C(N[C@@H]1CC[C@@]2(O)C3Cc4ccc(O)cc4[C@@]2(CCN3CC2CC2)C1)c1cccc(I)c1 [MP1601]	9.76
CO[C@@]12CC[C@@H](NC(=O)c3cccc(I)c3)C3Oc4c(O)ccc5c4[C@@]31CCN(CC1CC1)C2C5 (stereo partly drawn) [MP1305]	9.14
O=C(N[C@@H]1CC[C@H]2[C@H]3Cc4ccc(O)c5c4[C@@]2(CCN3CC2CC2)[C@H]1O5)c1cccc(CO)c1 [MP1210]	10.6

Turning now to a further molecule:
Ask | // returns reported Gi pEC50±SEM hKOR for input O=C(N[C@@H]1C=CC2[C@H]3Cc4ccc(O)c5c4[C@@]2(CCN3CC2CC2)[C@H]1O5)c1cccc(I)c1 (stereo partly drawn) [MP1104, reference compound]
Reply | 11.74

---

Give Emax for every item shown.
Target: hKOR (Homo sapiens, UniProt P41145)
Construct: expressed in transfected cells; host or cells: HEK 293T (ATCC CRL-11268), transient
Assay: Tango β-arrestin recruitment assay, hKOR
Format: cell-based
Numbers only, in %.

Worked cases, answers included:
> print(dat)
                                   compound  quantity  unit.of.measurement  reported
1  N=C(N)NCc1cccc(C(=O)N[C@@H]2CCC3C4Cc5ccc(O)c6c5[C@@]3(CCN4CC3CC3)C2O6)c1 (stereo partly shown) [MP1208]      Emax                    %        48
2  NCc1ccc(C(=O)N[C@@H]2CC[C@H]3[C@H]4Cc5ccc(O)c6c5[C@@]3(CCN4CC3CC3)[C@H]2O6)cc1 [MP1209]      Emax                    %        67
3  O=C(N[C@@H]1CC[C@@]2(O)C3Cc4ccc(O)cc4[C@@]2(CCN3CC2CC2)C1)c1cccc(I)c1 [MP1601]      Emax                    %       107
4  CO[C@@]12CC[C@@H](NC(=O)c3cccc(I)c3)C3Oc4c(O)ccc5c4[C@@]31CCN(CC1CC1)C2C5 (stereo partly shown) [MP1305]      Emax                    %        75
5  NCc1cccc(C(=O)NC2CCC3C4Cc5ccc(O)c6c5C3(CCN4CC3CC3)C2O6)c1 (stereo not shown) [MP1207]      Emax                    %        37

Lab note: each compound below needs its Emax filled in.
1. O=C(N[C@@H]1CC[C@H]2[C@H]3Cc4ccc(O)c5c4[C@@]2(CCN3CC2CC2)[C@H]1O5)c1cccc(CO)c1 [MP1210]
2. O=C(N[C@@H]1CCC2C3Cc4ccc(O)c5c4C2(CCN3CC2CC2)C1O5)c1cccc(I)c1 (stereo partly shown) [MP1202]

Reply |
63
101

The reported numbers originate from patent US11613547B2.
